System: HT29 colon
ASSAY_NOTES: NCI tumour cell line growth inhibition, 48 h; in the data active means GI50 below about 0.43 µM; inactive means the rest
Can you answer with just one of these options? active, inactive

State the result this test recorded for Cc1cc(Cl)ccc1NS(=O)(=O)c1ccc(-c2cnc(C3CC3)o2)cc1 .
active

====

System: MDA-MB-231 breast
ASSAY_NOTES: NCI tumour cell line growth inhibition, 48 h
PROPERTY_MEASURED: TGI (µM)
Give bare numbers, in µM.

Solved entries (count: 4):
[
  {
    "COMPOUND": "CC(C)C1(O)C(=O)N(c2c(F)c(F)c(F)c(F)c2F)C(=S)N1CCSc1ccccc1 (stereo unspecified)",
    "TGI (µM)": 26.4
  },
  {
    "COMPOUND": "Cc1cc(C(O)CN(C)C)cc2c1ccc1cc(C(C)C)ccc12 (stereo unspecified)",
    "TGI (µM)": 3.55
  },
  {
    "COMPOUND": "CO[C@]1(CN2CCN3CCCC[C@@H]3C2)/C=C/C[C@H](C)[C@@H](C)S(=O)(=O)NC(=O)c2ccc3c(c2)N(C[C@@H]2CC[C@H]21)C[C@@]1(CCCc2cc(Cl)ccc21)CO3",
    "TGI (µM)": 3.27
  },
  {
    "COMPOUND": "Cc1cc(Cl)ccc1NS(=O)(=O)c1ccc(-c2cnc(C3CC3)o2)cc1",
    "TGI (µM)": 20
  }
]

Next up:
Give the reported TGI for this compound. COc1ccc(CCc2cc(OC)c(OC)c(OC)c2)cc1
15.7

====

Tested on: UACC-62 melanoma
ASSAY_NOTES: NCI tumour cell line growth inhibition, 48 h
PROPERTY_MEASURED: TGI

Worked examples follow.
[
  {
    "MOLECULE": "CS(=O)(=O)NC12CCC(c3ccccc31)c1ccccc12",
    "SYSTEM": "UACC-62 melanoma",
    "MEASUREMENT": "> 100 µM"
  },
  {
    "MOLECULE": "O=C(Nc1cccc(-n2cc(-c3ccncc3)c(-c3ccc(O)c(Cl)c3)n2)c1)c1cccc(C(F)(F)F)c1",
    "SYSTEM": "UACC-62 melanoma",
    "MEASUREMENT": "> 100 µM"
  },
  {
    "MOLECULE": "COc1ccc(CCN2CCc3c(C)c(C#N)c4nc5ccccc5n4c32)cc1OC",
    "SYSTEM": "UACC-62 melanoma",
    "MEASUREMENT": "95.3 µM"
  }
]

List the reported TGI of each molecule below.
1. CC1=C(C(=O)Nc2ccc(Cl)c(Cl)c2)C(c2ccccc2O)NC(=O)N1 (stereo not given)
2. COc1ccc(CCN=C2CCC(C(=O)NCCc3ccc(OC)c(OC)c3)N2)cc1OC (stereo not given)
3. CC1CC2(C)CC(=O)C1C1C(=O)N(CCN3CCCCC3)C(=O)C12 (stereo not given)
4. Cc1ccc(S(=O)(=O)N(CC(O)COc2ccccc2)c2ccc(F)cc2F)cc1 (stereo not given)
5. N/C(=N\Nc1ccc(S(N)(=O)=O)cc1)c1cnccn1

1. > 50 µM
2. > 100 µM
3. > 100 µM
4. 31.9 µM
5. > 100 µM

Hi team, please reply with TGI for each item in this list.
1. COc1cc2c(c(OC)c1OC)-c1ccc(SC)c(=O)cc1[C@@H](NC(=O)c1ccc(Cl)cc1)CC2
2. O=C(Nc1cccc(NC(=O)c2cc(=O)c3ccccc3o2)n1)c1cc(=O)c2ccccc2o1

1: 56.3 µM; 2: > 100 µM

// provenance: PubChem BioAssay (NCI)
